- System tested: HA of ca A/Sydney/5/97 (H3N2) (influenza A virus)
- Assay summary: cell-based or functional assay
Give measured Neutralization IC50, H3-Syd97 for each item. Keep answers brief.
Write the figure, then the unit, nothing else.

In: I am curious: what Neutralization IC50, H3-Syd97 value has been reported for Antibody 11 (antibody, V domains shown) VH: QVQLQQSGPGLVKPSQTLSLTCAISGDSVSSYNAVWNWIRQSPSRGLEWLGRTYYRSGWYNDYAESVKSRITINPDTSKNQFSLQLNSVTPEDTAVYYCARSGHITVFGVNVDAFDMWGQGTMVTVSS VL: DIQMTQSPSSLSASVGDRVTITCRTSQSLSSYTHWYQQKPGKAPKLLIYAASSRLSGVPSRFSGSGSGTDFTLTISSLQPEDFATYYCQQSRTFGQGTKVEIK ?
Out: 1.53 µg/mL

In: I am curious: what Neutralization IC50, H3-Syd97 value has been reported for Antibody 14 (antibody, V domains shown) VH: QVQLQQSGPGLVKPSQTLSLTCAISGDSVSSNNAVWNWIRQSPSRGLEWLGRTYYRSKWYNDYAESVKSRITINPDTSKNQFSLQLNSVTPEDTAVYYCARSGHITVFGVNVDAFDMWGQGTTVTVSS VL: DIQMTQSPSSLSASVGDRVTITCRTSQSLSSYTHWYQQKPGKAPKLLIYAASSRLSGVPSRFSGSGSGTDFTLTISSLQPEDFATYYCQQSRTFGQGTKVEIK ?
Out: 1.82 µg/mL

In: I am curious: what Neutralization IC50, H3-Syd97 value has been reported for Antibody 15 (antibody, V domains shown) VH: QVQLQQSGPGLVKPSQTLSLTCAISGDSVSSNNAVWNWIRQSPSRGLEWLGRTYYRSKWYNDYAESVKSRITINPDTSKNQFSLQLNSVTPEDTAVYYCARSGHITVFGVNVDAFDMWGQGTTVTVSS VL: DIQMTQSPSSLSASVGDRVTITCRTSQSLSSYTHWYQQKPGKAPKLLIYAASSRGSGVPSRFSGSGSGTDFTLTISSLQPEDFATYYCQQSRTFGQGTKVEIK ?
Out: 1.79 µg/mL

// provenance: patent US20160257732A1
